The entries below are paired with their reported CC50 at 3 days.
Experiment: in vitro
Format: cell-based
Conditions: African green monkey

{"molecule": "COc1cc(NC(C(=O)c2c[nH]c3cc(OC)c(F)cc23)c2ccc(F)cc2OC)cc(OCCO)c1 (single isomer, unassigned)", "unit label": "µM", "CC50 at 3 days": 3.8}
{"molecule": "COc1cc(NC(C(=O)c2c[nH]c3c(Cl)c(OC)ccc23)c2ccc(F)cc2OC)cc(OCCO)c1 (single isomer, unassigned)", "unit label": "µM", "CC50 at 3 days": 10}
{"molecule": "COc1cc(NC(C(=O)c2c[nH]c3c(C)cc(F)cc23)c2ccc(F)cc2OC)cc(OCCO)c1 (single isomer, unassigned)", "unit label": "µM", "CC50 at 3 days": 3.8}
